B1: PLAGL1 (parent)
chain: LELGSTEVLLDHLKAHAEEKPPSG

variants of: B1; experiment: protein stability index of a GFP-peptide fusion (GPS, HEK-293T) (PSI 1-6); higher = more stable; settings: c terminus: a fixed tail appended;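 further: lentivirally expressed fusions sorted by FACS into six bins by GFP to DsRed ratio, PSI derived from sequencing read proportions per bin multiplied by bin number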
measure: protein stability index
Numbers only.

>  <mutation_name>
S5L

>  <measure>
protein stability index

>  <number>
2.53

$$$$
>  <mutation_name>
S5Q

>  <measure>
protein stability index

>  <number>
2.92

$$$$
>  <mutation_name>
K14L

>  <measure>
protein stability index

>  <number>
4.61

$$$$

// each variant listed below needs its protein stability index
1. D11Q
2. L10K

Result ::
1. 2.17
2. 5.83

// each variant listed below needs its protein stability index
1. P21I
2. V8D
3. D11A
4. D11K
5. H16D
6. G4T
7. P22E

Result ::
[4.22, 5.01, 4, 3.65, 4.25, 3.95, 5.08]

// each variant listed below needs its protein stability index
1. E19Q
2. A15W
3. L1T

Result ::
3.89
3.54
4.91

// each variant listed below needs its protein stability index
1. P21E
2. L9H
3. G24C
4. E7K

Result ::
[5.38, 5.15, 3.97, 3.85]

// each variant listed below needs its protein stability index
1. A17D
2. G24N
3. S5C
4. K14A

Result ::
1. 4.66
2. 4.54
3. 4.51
4. 4.93

// each variant listed below needs its protein stability index
1. S5N
2. H12M
3. H12P
4. E19K
5. T6V
6. L9E
7. E19C
8. K20A

Result ::
[5.08, 3.06, 5.48, 3.55, 4.24, 5.92, 3.12, 4.56]

// each variant listed below needs its protein stability index
1. L10N
2. A15L
3. P21F

Result ::
[5.74, 4.83, 3.72]

// each variant listed below needs its protein stability index
1. S5W
2. L1F
3. E2P
4. H16G
5. E2V
6. P21C

Result ::
2.97
4.48
4.67
3.88
2.49
3.55
